- measurement_target: Cad1 (UniProt P24813)
- Sequence: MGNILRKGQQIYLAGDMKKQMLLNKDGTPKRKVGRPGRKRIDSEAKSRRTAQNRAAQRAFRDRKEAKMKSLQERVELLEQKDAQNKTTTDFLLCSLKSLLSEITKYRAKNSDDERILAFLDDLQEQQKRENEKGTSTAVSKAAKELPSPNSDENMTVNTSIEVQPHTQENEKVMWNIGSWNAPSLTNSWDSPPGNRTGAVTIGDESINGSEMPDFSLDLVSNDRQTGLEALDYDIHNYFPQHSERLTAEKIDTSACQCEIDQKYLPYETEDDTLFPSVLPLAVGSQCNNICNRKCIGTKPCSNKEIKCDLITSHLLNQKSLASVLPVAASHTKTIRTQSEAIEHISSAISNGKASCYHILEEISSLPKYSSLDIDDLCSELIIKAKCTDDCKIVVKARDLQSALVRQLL
- procedure_summary: PBM E-score (8-mer binding enrichment) (E-score (-0.5 to 0.5)); higher = stronger / more preferred TF binding
- condition_description: protein concentration: 100 nM; construct: GST-full length
The full ranking holds about 33,000 sequences; the median of “E-score (-0.5 to 0.5)” is about -0.0014, and the highest 2% start at about 0.25. For the sample, the highest values were picked, then their nearest neighbours and some sequences at random.
Measured PBM E-score, listed per entry.
Note: the reply should be a number with no unit written.

{"columns": ["seq_string", "PBM E-score"],
 "data": [
  ["AAAGGACA", -0.0819]
]}

Notebook: AATATGTA , PBM E-score read as 0.206

Notebook: ACTAATTC , PBM E-score read as 0.306

Notebook: ACATAACA , PBM E-score read as 0.273

Source listed as the supplement of paper PMC3334620.
